Listing of entries alongside the reported melting point.

Here are 2 compounds together with their reported answers.
O=C1CC(c2cccc(-c3cccnc3)c2)=Nc2ccc(-c3ccccc3F)cc2N1 ... 208 to 209 °C
N#Cc1ccc(-c2cccc(C3=Nc4ccc(C(F)(F)F)cc4NC(=O)C3)c2)cn1 ... 234 to 237 °C

Give the measured melting point of Cc1cc2c(cc1Cl)NC(=O)CC(c1cccc(-c3ncccn3)c1)=N2 .
223 to 227 °C

Give the measured melting point of Cc1ccc(-c2cccc(C3=Nc4ccc(-c5ccccc5F)cc4NC(=O)C3)c2)cn1 .
206 to 209 °C

Give the measured melting point of COc1ccc2c(c1)NC(=O)CC(c1cccc(-c3ccncc3)c1)=N2 .
193 to 196 °C

Give the measured melting point of CN(C)c1ccc(-c2cccc(C3=Nc4cc(OCC(F)(F)F)c(C(F)(F)F)cc4NC(=O)C3)c2)cn1 .
240 to 241 °C

Give the measured melting point of Cc1cc(-c2cccc(C3=Nc4ccc(OC(F)(F)F)cc4NC(=O)C3)c2)cc(C)n1 .
190 to 193 °C

Give the measured melting point of Cc1cc(-c2cccc(C3=Nc4cc(N5CCOCC5)c(C(F)(F)F)cc4NC(=O)C3)c2)cc(C)n1 .
251 to 252 °C
